- Species: Rattus norvegicus
- experimental.details: DrugMatrix - Regimen: Daily Repeat
- Type: toxicity, organism-based, Sprague-Dawley
- Design: regimen Daily Repeat, gender Male, age 6-8 weeks
- condition.notes: in vivo, po, 0 mg/kg, 72 h, tissue Plasma, route oral GAVAGE, dose level Control, time 3 day, vehicle .5 % CMC
Given measured CHOLESTEROL, output Fulfilled if it is greater than or equal to 70 mg/dL and Not fulfilled if not.

CC(C)(Sc1cc(C(C)(C)C)c(O)c(C(C)(C)C)c1)Sc1cc(C(C)(C)C)c(O)c(C(C)(C)C)c1
Fulfilled
O=c1cc(-c2ccccc2)oc2ccc3ccccc3c12
Fulfilled
Nc1cccc(Cl)c1
Fulfilled
CC[C@]1(O)CC[C@H]2[C@@H]3CCC4=CCCC[C@@H]4[C@H]3CC[C@@]21C
Fulfilled
COc1ccccc1OCC(O)COC(N)=O (stereo not drawn)
Not fulfilled

Problem: API: above_or_equal(metric=CHOLESTEROL, cutoff=70 mg/dL) for item COc1ccc(/C=C/C(=O)Nc2ccccc2C(=O)O)cc1OC
Solution: Fulfilled

Problem: API: above_or_equal(metric=CHOLESTEROL, cutoff=70 mg/dL) for item CC(C(=O)O)c1ccc(-c2ccccc2)c(F)c1 (stereo not drawn)
Solution: Fulfilled

Problem: API: above_or_equal(metric=CHOLESTEROL, cutoff=70 mg/dL) for item C=C(CC)C(=O)c1ccc(OCC(=O)O)c(Cl)c1Cl
Solution: Fulfilled

Problem: API: above_or_equal(metric=CHOLESTEROL, cutoff=70 mg/dL) for item C[C@@H](O)[C@H]1C(=O)N2C(C(=O)O)=C(S[C@@H]3CN[C@H](C(=O)N(C)C)C3)[C@H](C)[C@H]12
Solution: Fulfilled

Problem: API: above_or_equal(metric=CHOLESTEROL, cutoff=70 mg/dL) for item C[C@@H]1CC[C@H]2[C@@H](C)C(=O)O[C@@H]3O[C@@]4(C)CC[C@@H]1[C@]32OO4
Solution: Not fulfilled

Problem: API: above_or_equal(metric=CHOLESTEROL, cutoff=70 mg/dL) for item Clc1cc2c(cc1Cl)Oc1cc(Cl)c(Cl)cc1O2
Solution: Fulfilled

---

We begin with a simple list: items and their reported NUCLEATED RED BLOOD CELLS.
- Species on record: Rattus norvegicus
- experimental.details: DrugMatrix - Regimen: Daily Repeat
- Format: toxicity, organism-based, Sprague-Dawley
- Set-up: regimen Daily Repeat, gender Male, age 6-8 weeks
- condition.notes: in vivo, po, 0 mg/kg, 120 h, tissue Blood, route oral GAVAGE, dose level Control, time 5 day, […]

COc1ncnc(NS(=O)(=O)c2ccc(N)cc2)c1OC [SULFADOXINE]
0 /100WBC
OCCN1CCN(CCCN2c3ccccc3Sc3ccc(C(F)(F)F)cc32)CC1 [FLUPHENAZINE]
0 /100WBC
NC[C@@H]1O[C@H](O[C@H]2[C@@H](O)[C@H](O[C@@H]3[C@@H](O)[C@H](N)C[C@H](N)[C@H]3O[C@H]3O[C@H](CN)[C@@H](O)[C@H](O)[C@H]3N)O[C@@H]2CO)[C@H](N)[C@@H](O)[C@@H]1O [FRAMYCETIN]
0.17 /100WBC
C#C[C@]1(O)CC[C@H]2[C@@H]3CCc4cc(O)ccc4[C@H]3CC[C@@]21C [ETHINYL ESTRADIOL]
0 /100WBC

# molecule CC(=O)Nc1nnc(S(N)(=O)=O)s1 [ACETAZOLAMIDE] ; its NUCLEATED RED BLOOD CELLS = 0 /100WBC

# molecule CC(C)Cc1ccc(CC(=O)O)cc1 [IBUFENAC] ; its NUCLEATED RED BLOOD CELLS = 0 /100WBC

# molecule CC[C@H](C)C(=O)O[C@H]1C[C@H](O)C=C2C=C[C@H](C)[C@H](CC[C@@H](O)C[C@@H](O)CC(=O)O)[C@H]21 [PRAVASTATIN] ; its NUCLEATED RED BLOOD CELLS = 0.17 /100WBC

# molecule CCn1cc(C(=O)O)c(=O)c2cc(F)c(N3CCNCC3)nc21 [ENOXACIN] ; its NUCLEATED RED BLOOD CELLS = 0 /100WBC

# molecule CC[C@H](C)C(=O)O[C@H]1C[C@@H](C)C=C2C=C[C@H](C)[C@H](CC[C@@H]3C[C@@H](O)CC(=O)O3)[C@H]21 [LOVASTATIN] ; its NUCLEATED RED BLOOD CELLS = 0 /100WBC

# molecule CN(CCOc1ccc(CC2SC(=O)NC2=O)cc1)c1ccccn1 (stereo not given) [ROSIGLITAZONE] ; its NUCLEATED RED BLOOD CELLS = 0.17 /100WBC

---

- Species on record: Rattus norvegicus
- experimental.details: DrugMatrix - Regimen: Daily Repeat
- Assay type: toxicity, organism-based, Sprague-Dawley
- Parameters: regimen Daily Repeat, gender Male, age 6-8 weeks
- condition.notes: in vivo, po, 1500 mg/kg, 120 h, tissue Blood, route oral GAVAGE, dose level High, time 5 day, vehicle .5 % CMC
attribute.measured: ABSOLUTE EOSINOPHIL
Dear colleague, please send the value followed by its unit.

Below, 3 compounds whose answers are already recorded.
CCOC(=O)[C@H](CCc1ccccc1)N[C@@H](C)C(=O)N1CCC[C@H]1C(=O)O
0 CELLS/uL
CC(C)(Sc1cc(C(C)(C)C)c(O)c(C(C)(C)C)c1)Sc1cc(C(C)(C)C)c(O)c(C(C)(C)C)c1 [PROBUCOL]
76.67 CELLS/uL
Nc1nc2c(c(=O)[nH]1)N(C=O)C(CNc1ccc(C(=O)N[C@@H](CCC(=O)O)C(=O)O)cc1)CN2 (some centres undefined) [LEUCOVORIN]
46.33 CELLS/uL

Please examine the following record next.
# compound C[C@@H](O)[C@H]1C(=O)N2C(C(=O)O)=C(S[C@@H]3CN[C@H](C(=O)N(C)C)C3)[C@H](C)[C@H]12 [MEROPENEM] ; its ABSOLUTE EOSINOPHIL = 276.67 CELLS/uL

---

- Species on record: Rattus norvegicus
- experimental.details: DrugMatrix - Regimen: Daily Repeat
- Type: toxicity, organism-based, Sprague-Dawley
- Parameters: regimen Daily Repeat, gender Male, age 6-8 weeks
- condition.notes: in vivo, po, 0 mg/kg, 120 h, tissue Blood, route oral GAVAGE, dose level Control, time 5 day, vehicle 100 % WATER
attribute.measured: LEUKOCYTE COUNT (x10E3/uL)
API: value field is a number in x10E3/uL; no unit string.

O=C(O)c1cc(=O)c2c(OCC(O)COc3cccc4oc(C(=O)O)cc(=O)c34)cccc2o1
11.35

Please examine the following record next.
# compound CCOC(N)=O ; its LEUKOCYTE COUNT = 15.87

---

- Species on record: Rattus norvegicus
- experimental.details: DrugMatrix - Regimen: Daily Repeat
- Type: toxicity, organism-based, Sprague-Dawley
- Set-up: regimen Daily Repeat, gender Male, age 6-8 weeks
- condition.notes: in vivo, po, 0 mg/kg, 72 h, tissue Blood, route oral GAVAGE, dose level Control, time 3 day, vehicle 100 % SALINE
attribute.measured: MEAN CORPUSCULAR HEMOGLOBIN

Below, 3 molecules whose answers are already recorded.
CC(=O)OCC(CCn1cnc2cnc(N)nc21)COC(C)=O [FAMCICLOVIR]
24.47 pg
Oc1ccccc1O [CATECHOL]
25.3 pg
Cc1cc(CC(=O)O)n(C)c1C(=O)c1ccc(Cl)cc1 [ZOMEPIRAC]
25.3 pg

Please examine the following record next.
# molecule CCCc1nn(C)c2c(=O)[nH]c(-c3cc(S(=O)(=O)N4CCN(C)CC4)ccc3OCC)nc12 ; its MEAN CORPUSCULAR HEMOGLOBIN = 24.47 pg

---

- Species on record: Rattus norvegicus
- experimental.details: DrugMatrix - Regimen: Daily Repeat
- Type: toxicity, organism-based, Sprague-Dawley
- Parameters: regimen Daily Repeat, gender Male, age 6-8 weeks
- condition.notes: in vivo, po, 0 mg/kg, 72 h, tissue Blood, route oral GAVAGE, dose level Control, time 3 day, […]
attribute.measured: ABSOLUTE SEGMENTED NEUTROPHIL

# molecule COc1ncnc(NS(=O)(=O)c2ccc(N)cc2)c1OC ; its ABSOLUTE SEGMENTED NEUTROPHIL = 906 CELLS/uL

# molecule CCn1cc(C(=O)O)c(=O)c2cc(F)c(N3CCNCC3)nc21 ; its ABSOLUTE SEGMENTED NEUTROPHIL = 1640.17 CELLS/uL

# molecule OCCN1CCN(CCCN2c3ccccc3Sc3ccc(C(F)(F)F)cc32)CC1 ; its ABSOLUTE SEGMENTED NEUTROPHIL = 633.67 CELLS/uL

---

- Organism: Rattus norvegicus
- experimental.details: DrugMatrix - Regimen: Daily Repeat
- Type: toxicity, organism-based, Sprague-Dawley
- Parameters: regimen Daily Repeat, gender Male, age 6-8 weeks
- condition.notes: in vivo, po, 0 mg/kg, 72 h, tissue Plasma, route oral GAVAGE, dose level Control, time 3 day, vehicle 100 % WATER
attribute.measured: CARBON DIOXIDE (mmol/L)
API: value field is a number in mmol/L; no unit string.

Below, 2 molecules whose answers are already recorded.
CCCc1nn(C)c2c(=O)[nH]c(-c3cc(S(=O)(=O)N4CCN(C)CC4)ccc3OCC)nc12
31
Cc1c(N(C)CS(=O)(=O)[O-])c(=O)n(-c2ccccc2)n1C.[Na+] [DIPYRONE SODIUM]
31.83

# molecule CC(C)(C)NC[C@H](O)COc1nsnc1N1CCOCC1 [TIMOLOL] ; its CARBON DIOXIDE = 32.83

# molecule O=C(O)c1cccnc1 [NIACIN] ; its CARBON DIOXIDE = 22.83

# molecule CC[C@H]1OC(=O)[C@H](C)[C@@H](O[C@H]2C[C@@](C)(OC)[C@@H](O)[C@H](C)O2)[C@H](C)[C@@H](O[C@@H]2O[C@H](C)C[C@H](N(C)C)[C@H]2O)[C@](C)(O)C[C@@H](C)CN(C)[C@H](C)[C@@H](O)[C@]1(C)O [AZITHROMYCIN] ; its CARBON DIOXIDE = 29.83

# molecule CCCCCCCCCCCCCCCC[n+]1ccccc1.[Br-] ; its CARBON DIOXIDE = 31.83

# molecule OCCO [ETHYLENE GLYCOL] ; its CARBON DIOXIDE = 31

# molecule Nc1ccc(S(=O)(=O)Nc2nccs2)cc1 [SULFATHIAZOLE] ; its CARBON DIOXIDE = 32.83

# molecule CCN(CC)CC#CCOC(=O)C(O)(c1ccccc1)C1CCCCC1 (centres undefined) [OXYBUTYNIN] ; its CARBON DIOXIDE = 29.17
